Property: D9-choline uptake % effect 10 μM; scope: individual compounds
# target-system: CHT (Homo sapiens, UniProt Q9GZV3)
# Sequence (Q9GZV3 1-580): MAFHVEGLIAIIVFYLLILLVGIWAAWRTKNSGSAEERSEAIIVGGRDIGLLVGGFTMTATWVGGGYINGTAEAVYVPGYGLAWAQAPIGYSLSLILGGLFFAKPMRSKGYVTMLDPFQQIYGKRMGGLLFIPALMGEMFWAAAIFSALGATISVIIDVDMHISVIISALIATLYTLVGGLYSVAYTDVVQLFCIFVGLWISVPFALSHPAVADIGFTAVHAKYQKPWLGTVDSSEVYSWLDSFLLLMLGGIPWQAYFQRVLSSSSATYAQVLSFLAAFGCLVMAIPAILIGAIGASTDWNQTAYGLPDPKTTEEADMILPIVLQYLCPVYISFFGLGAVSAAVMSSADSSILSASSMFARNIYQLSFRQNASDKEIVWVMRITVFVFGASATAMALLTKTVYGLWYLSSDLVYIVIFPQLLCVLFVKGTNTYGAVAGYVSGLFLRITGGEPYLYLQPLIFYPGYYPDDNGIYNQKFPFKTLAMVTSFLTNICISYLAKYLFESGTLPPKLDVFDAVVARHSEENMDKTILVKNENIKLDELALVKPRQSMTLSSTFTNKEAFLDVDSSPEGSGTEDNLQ
# stated-conditions: 10 μM compound; HEK293 CHT-WT4; DMSO negative control, 10 μM STS positive control
Give just the number in %; leave the unit off.

Guide cases for D9-choline uptake % effect 10 μM, answers given:
COc1ccc(C(=O)NCc2cc(C(C)C)no2)cc1OC1CCN(C)CC1 [ML-352, reference compound] = 104.1
Cn1ncc2nc(-c3ccnc(N)c3)nc(N3CCNCC3(C)C)c21 [Compound 9] = 64.0
O=C(NCc1ccc(Cl)cc1)c1ccc2snc(N3CCNCC3)c2c1 [Compound 4] = 118.1

-- ask Any idea what D9-choline uptake % effect 10 μM was measured for N#Cc1c[nH]c2ncnc(N3CCC4(CC3)CNCc3ccc(C(F)(F)F)nc34)c12 [Compound 8] ?
-- reply 80.2

-- ask Follow-up item: CNC(=O)C1CCCN1c1nc(Cc2ccccc2F)cc(Nc2cc(C3CC3)[nH]n2)n1 (stereo not drawn) [Compound 6]
-- reply 91.6

-- ask Follow-up item: CNC(=O)C1CCC(Nc2nc(Nc3ccc(S(C)(=O)=O)cc3)ncc2C(F)(F)F)C1 (stereo not drawn) [Compound 7]
-- reply 80.8

###

# target-system: high affinity choline transporter (CHT) (Homo sapiens)
# Construct: expressed in transfected cells; host or cells: HEK-293, lentiviral transduction, single-cell clone CHT-WT4
# assay-details: Radiometric [3H]Choline uptake assay (scintillation proximity) in HEK cells expressing CHT
# Type: cell-based
# stated-conditions: PAM compounds; 10-point dose response; HEK293 CHT-WT4; n.d. = not detected; read-out: 3H-choline uptake IC50 or EC50
value-type: pEC50
Keep in mind that pEC50 stands for -log10 of concentration in molar terms.

O=C(CC1=CCCCC1)Nc1ccnc2ccccc12 = 6.56

As a next step, examine the compound that follows.
-- ask Any idea what pEC50 was measured for O=C(Cn1c(=O)oc2ccccc21)Nc1ccnc2ccccc12 ?
-- reply 6.38

###

# target-system: high affinity choline transporter (CHT) (Homo sapiens, UniProt Q9GZV3)
# Construct: expressed in transfected cells; host or cells: HEK-293, lentiviral transduction, single-cell clone CHT-WT4
# Sequence (Q9GZV3 1-580): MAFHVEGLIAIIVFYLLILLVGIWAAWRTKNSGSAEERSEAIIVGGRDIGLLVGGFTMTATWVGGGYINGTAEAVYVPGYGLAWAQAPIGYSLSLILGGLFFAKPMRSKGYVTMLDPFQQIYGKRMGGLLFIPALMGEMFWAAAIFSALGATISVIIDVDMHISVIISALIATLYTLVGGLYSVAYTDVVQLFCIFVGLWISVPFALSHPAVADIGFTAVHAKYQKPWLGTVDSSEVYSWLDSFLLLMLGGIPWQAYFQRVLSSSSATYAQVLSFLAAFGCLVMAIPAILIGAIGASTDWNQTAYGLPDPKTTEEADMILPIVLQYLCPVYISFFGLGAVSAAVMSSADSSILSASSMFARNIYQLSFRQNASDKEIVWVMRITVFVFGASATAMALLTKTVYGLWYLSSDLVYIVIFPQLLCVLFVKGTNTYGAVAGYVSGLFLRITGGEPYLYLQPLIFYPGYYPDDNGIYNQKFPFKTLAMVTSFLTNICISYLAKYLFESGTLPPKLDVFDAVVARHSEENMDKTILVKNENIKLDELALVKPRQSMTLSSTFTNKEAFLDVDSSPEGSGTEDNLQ
# assay-details: Radiometric [3H]Choline uptake assay (scintillation proximity) in HEK cells expressing CHT
# Assay type: cell-based
# stated-conditions: 10 μM compound; HEK293 CHT-WT4; 100% = 10 μM Staurosporine, 0% = DMSO
Property: 3H-choline uptake % effect 10 μM; scope: individual compounds
Give just the number in %; leave the unit off.

Guide cases for 3H-choline uptake % effect 10 μM, answers given:
Cn1ncc2nc(-c3ccnc(N)c3)nc(N3CCNCC3(C)C)c21 = 100.0
N#Cc1c[nH]c2ncnc(N3CCC4(CC3)CNCc3ccc(C(F)(F)F)nc34)c12 = 52.6
CNC(=O)C1CCCN1c1nc(Cc2ccccc2F)cc(Nc2cc(C3CC3)[nH]n2)n1 (stereo not shown) = 23.6

-- ask Any idea what 3H-choline uptake % effect 10 μM was measured for CNC(=O)C1CCC(Nc2nc(Nc3ccc(S(C)(=O)=O)cc3)ncc2C(F)(F)F)C1 (stereo not shown) ?
-- reply 26.7

Reference for the values: paper PMC5326799
